This listing pairs compounds with measured IC50.
# Tested on: Plasmodium falciparum
# Procedure Details: Antiplasmodial activity against chloroquine-resistant Plasmodium falciparum W2 infected in human A+ erythrocytes assessed as inhibition of parasite proliferation after 48 hrs
# Format: functional, organism-based
# Condition: W2, 48 h
Measurement Kind: IC50

1. CC(=O)Nc1ccc2oc(-c3ccccc3)cc(=O)c2c1: > 50 µM
2. COc1c(-c2ccccc2F)oc2ccc(NC(C)=O)cc2c1=O: 15 µM
3. COc1ccc(-c2cc(=O)c3cc(NC(C)=O)ccc3o2)cc1: > 50 µM
4. Nc1ccc2oc(-c3cccc(F)c3)cc(=O)c2c1: > 50 µM
5. COc1ccc(-c2oc3ccc(N)cc3c(=O)c2OC)cc1: > 21 µM
6. COc1c(-c2ccc(C(F)(F)F)cc2)oc2ccc(N)cc2c1=O: 26 µM
7. CC(=O)Nc1ccc2oc(-c3ccc(C(F)(F)F)cc3)cc(=O)c2c1: > 10 µM
8. COc1cccc(-c2oc3ccc(NC(C)=O)cc3c(=O)c2OC)c1: > 5 µM
9. COc1ccccc1-c1oc2ccc(NC(C)=O)cc2c(=O)c1O: 50 µM
10. CC(=O)Nc1ccc(O)c(C(=O)/C=C/c2ccc(C(F)(F)F)cc2)c1: 11.6 µM
11. Nc1ccc2oc(-c3ccccc3)c(O)c(=O)c2c1: > 27 µM
